- SYSTEM NAME: 5-hydroxytryptamine receptor 2A (Homo sapiens, UniProt P28223); further: assay procedure not described here
- Sequence (P28223 whole entry): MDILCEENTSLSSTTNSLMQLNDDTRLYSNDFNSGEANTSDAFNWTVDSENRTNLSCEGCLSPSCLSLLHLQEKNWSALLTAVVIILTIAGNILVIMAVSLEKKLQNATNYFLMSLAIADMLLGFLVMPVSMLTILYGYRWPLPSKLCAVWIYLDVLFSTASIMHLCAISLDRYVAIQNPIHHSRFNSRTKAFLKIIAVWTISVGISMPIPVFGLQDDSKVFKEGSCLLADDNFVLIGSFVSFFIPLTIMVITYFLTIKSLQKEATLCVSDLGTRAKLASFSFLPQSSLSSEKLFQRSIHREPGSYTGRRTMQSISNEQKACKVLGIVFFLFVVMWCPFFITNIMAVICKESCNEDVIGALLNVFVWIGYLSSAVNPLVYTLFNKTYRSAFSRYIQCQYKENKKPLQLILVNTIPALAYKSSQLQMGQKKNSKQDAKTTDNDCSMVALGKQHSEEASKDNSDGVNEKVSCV
- Type: functional, cell-based

# COMPOUND, AC50
measured = [
    ("CC(=N)N1CC[C@H](SC2=C(C(=O)O)N3C(=O)[C@H]([C@@H](C)O)[C@H]3C2)C1", "> 300 µM"),
    ("C=C(C)[C@@H]1CCC(C)=C[C@H]1c1c(O)cc(CCCCC)cc1O [CANNABIDIOL]", "4.7 µM"),
    ("Cc1ccc(NC(=O)C2(c3ccc4c(c3)OC(F)(F)O4)CC2)nc1-c1cccc(C(=O)O)c1 [LUMACAFTOR]", "> 30 µM"),
    ("Cc1ccc2c(-c3ccccc3)nc(=O)n(C(C)C)c2c1 [PROQUAZONE]", "> 30 µM"),
    ("C#C[C@]1(O)CC[C@H]2[C@@H]3CCC4=CC(=O)CCC4=C3C=C[C@@]21CC [GESTRINONE]", "> 30 µM"),
]

----------
- SYSTEM NAME: Sodium-dependent serotonin transporter (Homo sapiens, UniProt P31645); further: assay procedure not described here
- Sequence (P31645 whole entry): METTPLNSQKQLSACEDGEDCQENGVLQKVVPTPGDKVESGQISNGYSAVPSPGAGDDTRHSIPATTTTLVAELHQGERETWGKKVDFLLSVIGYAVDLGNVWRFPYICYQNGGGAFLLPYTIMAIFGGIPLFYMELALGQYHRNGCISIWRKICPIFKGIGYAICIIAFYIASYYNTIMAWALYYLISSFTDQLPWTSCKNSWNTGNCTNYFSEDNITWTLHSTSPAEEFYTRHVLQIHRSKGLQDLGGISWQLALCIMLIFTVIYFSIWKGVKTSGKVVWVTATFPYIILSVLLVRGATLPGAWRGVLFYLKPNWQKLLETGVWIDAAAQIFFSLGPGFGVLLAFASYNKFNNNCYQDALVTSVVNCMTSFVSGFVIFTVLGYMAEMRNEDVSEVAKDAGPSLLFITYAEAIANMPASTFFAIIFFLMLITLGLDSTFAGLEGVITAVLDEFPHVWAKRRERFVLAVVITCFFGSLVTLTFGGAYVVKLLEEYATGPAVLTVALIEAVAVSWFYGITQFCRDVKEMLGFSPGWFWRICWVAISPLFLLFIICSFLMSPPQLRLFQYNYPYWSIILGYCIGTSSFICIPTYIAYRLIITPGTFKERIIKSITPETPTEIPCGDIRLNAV
Entries annotated with measured AC50

# COMPOUND, AC50
data = [
    ("O=C1c2c(O)cccc2Cc2cccc(O)c21 [ANTHRALIN]", "> 3 µM"),
    ("CNC(=O)C[C@@H](N)C(=O)N[C@@H](C(=O)N[C@@H]1C(=O)N2[C@@H]1SC(C)(C)[C@@H]2C(=O)O)c1ccc(O)cc1 [ASPOXICILLIN]", "> 30 µM"),
    ("CNC[C@H](O)c1cccc(O)c1 [PHENYLEPHRINE]", "> 30 µM"),
    ("O=P(O)(O)C(Cl)(Cl)P(=O)(O)O [CLODRONIC ACID]", "> 30 µM"),
    ("COc1cc([C@@H]2c3cc4c(cc3[C@@H](O[C@@H]3O[C@@H]5CO[C@@H](c6cccs6)O[C@H]5[C@H](O)[C@H]3O)[C@H]3COC(=O)[C@H]23)OCO4)cc(OC)c1O [TENIPOSIDE]", "> 30 µM"),
    ("C[C@H](N)C(=O)O [ALANINE]", "> 30 µM"),
    ("CC(=O)/N=c1/sc(S(N)(=O)=O)nn1C [METHAZOLAMIDE]", "> 30 µM"),
    ("N=C(N)NCc1cccc([123I])c1 [IOBENGUANE I 123]", "> 30 µM"),
    ("O=C1[C@H]2CCCC[C@H]2C(=O)N1CCCCN1CCN(c2nsc3ccccc23)CC1 [PEROSPIRONE]", "3.73 µM"),
    ("CCCC(=O)O[C@H]1[C@H](C)O[C@@H](O[C@H]2[C@H](N(C)C)[C@@H](O)[C@H](O[C@H]3[C@@H](CC=O)C[C@@H](C)[C@@H](O)/C=C/C=C/C[C@@H](C)OC(=O)C[C@@H](O)[C@@H]3OC)O[C@@H]2C)C[C@@]1(C)OC(=O)CC [ROKITAMYCIN]", "> 30 µM"),
    ("CO[C@H]1[C@@H](O)C[C@H](O[C@H]2[C@@H](O)C[C@H](O[C@H]3[C@@H](O)C[C@H](O[C@H]4CC[C@@]5(C)[C@H](CC[C@@H]6[C@@H]5C[C@@H](O)[C@]5(C)[C@@H](C7=CC(=O)OC7)CC[C@]65O)C4)O[C@@H]3C)O[C@@H]2C)O[C@@H]1C [METILDIGOXIN]", "> 30 µM"),
    ("Nc1ccncc1 [DALFAMPRIDINE]", "> 30 µM"),
    ("CC(C)(C)C(=O)NCCCC(=O)O [PIVAGABINE]", "> 30 µM"),
    ("Cc1cc(CCN2CCN(c3cccc(Cl)c3)CC2)n[nH]1 [MEPIPRAZOLE]", "3.8 µM"),
    ("CCSc1ccc2c(c1)N(CCCN1CCN(C)CC1)c1ccccc1S2 [THIETHYLPERAZINE]", "4.88 µM"),
    ("CCC[C@@H]1C[C@@H](C(=O)N[C@@H]([C@H]2O[C@H](SC)[C@H](OP(=O)(O)O)[C@@H](O)[C@H]2O)[C@H](C)Cl)N(C)C1 [CLINDAMYCIN PHOSPHATE]", "> 30 µM"),
    ("CCC(=O)O[C@@H]1CC(=O)O[C@H](C)C/C=C/C=C/[C@H](OC(C)=O)[C@H](C)C[C@H](CC=O)[C@H](O[C@@H]2O[C@H](C)[C@@H](O[C@H]3C[C@@](C)(OC(C)=O)[C@@H](OC(=O)CC)[C@H](C)O3)[C@H](N(C)C)[C@H]2O)[C@H]1OC [MIOCAMYCIN]", "> 30 µM"),
    ("CC1(C)O[C@@H]2[C@@H](CO[C@@]3(COS(N)(=O)=O)OC(C)(C)O[C@@H]23)O1 [TOPIRAMATE]", "> 30 µM"),
    ("CC(C)(N)C(=O)N[C@H](Cc1c[nH]c2ccccc12)C(=O)N[C@H](Cc1c[nH]c2ccccc12)NC=O [MACIMORELIN]", "> 30 µM"),
    ("CN(C)CCCN1C(=O)c2cc([N+](=O)[O-])ccc2Oc2ccccc21", "0.271 µM"),
    ("COCCOc1cnc(NS(=O)(=O)c2ccccc2)nc1 [GLYMIDINE]", "> 30 µM"),
    ("CN1CCN(CCCN2c3ccccc3Sc3ccc(S(=O)(=O)N(C)C)cc32)CC1 [THIOPROPERAZINE]", "17.3 µM"),
    ("CC(=O)OC(C)OC(=O)C(C)c1ccc(-c2ccccc2)c(F)c1 (stereo unspecified)", "> 30 µM"),
    ("C[C@@H](O)[C@H]1C(=O)N2C(C(=O)[O-])=C(SC3Cn4cnc[n+]4C3)[C@H](C)[C@H]12 (stereo partly specified) [BIAPENEM]", "> 30 µM"),
    ("COc1nccnc1NS(=O)(=O)c1ccc(N)cc1", "> 30 µM"),
    ("C=C1c2c(Cl)ccc(O)c2C(=O)C2=C(O)[C@]3(O)C(=O)C(C(N)=O)=C(O)[C@@H](N(C)C)[C@@H]3[C@@H](O)[C@H]12 [MECLOCYCLINE]", "> 30 µM"),
    ("C[C@]12CCC(=O)C=C1CC[C@@H]1[C@@H]2[C@@H](O)C[C@@]2(C)[C@H]1CC[C@]2(O)C(=O)COC(=O)CCC(=O)O [HYDROCORTISONE HEMISUCCINATE ANHYDROUS]", "> 30 µM"),
    ("NC(=O)c1nc(F)c[nH]c1=O", "> 30 µM"),
    ("CN(CC(=O)O)C(=N)N [CREATINE]", "> 30 µM"),
    ("C1CNCCN1 [PIPERAZINE]", "> 30 µM"),
    ("CC(c1ccc(Cl)c(Cl)c1)N1N=C(N)CC1=O (stereo unspecified) [MUZOLIMINE]", "> 30 µM"),
]
